All values here come from patent US20080058263A1.

target: T1, VEGFR-2-Fc (UniProt P35968 20-322)
T1 construct: domain: first 3 Ig domains; conditioned supernatant of 293T cells; also called VEGFR-2-Fc fusion protein; not shown: Fc fragment of the pIg vector
T1 sequence (P35968 20-322): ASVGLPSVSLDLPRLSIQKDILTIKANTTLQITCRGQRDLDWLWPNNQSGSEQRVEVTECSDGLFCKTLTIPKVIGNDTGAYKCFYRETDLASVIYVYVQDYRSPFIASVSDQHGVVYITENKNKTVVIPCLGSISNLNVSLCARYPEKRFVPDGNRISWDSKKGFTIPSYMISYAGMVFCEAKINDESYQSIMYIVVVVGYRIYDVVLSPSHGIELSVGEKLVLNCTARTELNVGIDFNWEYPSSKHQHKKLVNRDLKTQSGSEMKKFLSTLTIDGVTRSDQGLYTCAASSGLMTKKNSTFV
protocol-notes: receptor-Fc IP
observed-property: binding result

Solved entries (count: 7):
52-7 (ligand) AHYNTEILKSIDNEWRKTQCMPIETLVDIFQEFGVATNTFFKPPCVSVYRCGGCCNSEGLQCVPTEESNITMQIMRIKPHQGQHIGEMSFANHTSCRCMSKLD    no binding
62-11 (ligand) GQNHHEVVKFMDVYQRSYCHPREVCIDVGKEFGVATNTFFKPPCVSVYRCGGCCNSEGLQCVPTEESNITMQIMRITVPLSQGPKPVTISFLQHNKCECRPKKD    binds
41-7 (ligand) AHYNTEILKFMDVYQRSYCHPREVCIDVGKEYPDEIEYIFKPSCVPLMRCGGCCNSEGLQCVPTEESNITMQIMRIKPHQGQHIGEMSFANHTSCRCMSKLD    no binding
14-9 (ligand, clone entry) GQNHHEVVKFMDVYQRSYCHPIETLVDIFQEFGVATNTFFKPSCVPLMRCGGCCNDEGLECVPTEESNITMQIMRITVPLSQGPKPVTISFLQHNKCECRPKKDL    binds
21-3 (ligand) AHYNTEILKSIDNEWRKTQCMPREVCIDVGKEYPDEIEYIFKPSCVPLMRCGGCCNSEGLQCVPTEESNITMQIMRIKPHQGQHIGEMSFLQHNKCECRPKKD    no binding
12-15 (ligand) GQNHHEVVKFMDVYQRSYCHPIETLVDIFQEFGVATNTFFKPPCVSVYRCGGCCNSEGLQCVPTEESNITMQIMRITVPLSQGPKPVTISFANHTSCRCMSKLDLVFEQKLISEEDLNSAVDHHHHHH    binds
24-16 (ligand) AHYNTEILKSIDNEWRKTQCMPREVCIDVGKEFGVATNTFFKPSCVPLMRCGGCCNSEGLQCMNTSTSYLSKTLFEITVPLSQGPKPVTISFANHTSCRCMSKLD    no binding

Shifting focus to the binder that follows.
Specify measured binding result for 54-3 (ligand) AHYNTEILKSIDNEWRKTQCMPIETLVDIFQEFGVATNTFFKPSCVPLMRCGGCCNSEGLQCVPTEESNITMQIMRIKPHQGQHIGEMSFLQHNKCECRPKKD . no binding
